Test summary: in vivo
Condition details: female, BALB/c, mouse, po, 10 mg/kg
Outcome measure: half-life (h)
Your answer is read as h, so omit the unit and give the number.

Task: Determine from records and report half-life for `COc1ccc2ncc(F)c(C[C@H](O)[C@H]3OC[C@H](NCc4cnc5c(n4)NC(=O)CO5)CO3)c2n1`
Output: 2.6

* * *

Test summary: in vivo
Condition details: female, BALB/c, mouse, po, 10 mg/kg
Outcome measure: Tmax (min)
Your answer is read as min, so omit the unit and give the number.

Task: Determine from records and report Tmax for COc1ccc2ncc(F)c(C[C@H](O)[C@H]3OC[C@H](NCc4cnc5c(n4)NC(=O)CO5)CO3)c2n1 [OSUAB-0284]
Output: 15

* * *

Test summary: in vivo
Condition details: female, BALB/c, mouse, po, 50 mg/kg
Outcome measure: Cmax
Provide a numeric answer, followed by its unit.

Task: Determine from records and report Cmax for COc1ccc2ncc(F)c(C[C@H](O)[C@H]3OC[C@H](NCc4cnc5c(n4)NC(=O)CO5)CO3)c2n1 [OSUAB-0284]
Output: 50.3 µg/mL

* * *

Test summary: in vivo
Condition details: female, BALB/c, mouse, po, 50 mg/kg
Outcome measure: Tmax (min)
Your answer is read as min, so omit the unit and give the number.

Task: Determine from records and report Tmax for `COc1ccc2ncc(F)c(C[C@H](O)[C@H]3OC[C@H](NCc4cnc5c(n4)NC(=O)CO5)CO3)c2n1`
Output: 15

* * *

Test summary: in vivo
Condition details: female, BALB/c, mouse, iv, 10 mg/kg
Outcome measure: AUC(0-inf) (ng·h/mL)
Your answer is read as ng·h/mL, so omit the unit and give the number.

Task: Determine from records and report AUC(0-inf) for COc1ccc2ncc(F)c(C[C@H](O)[C@H]3OC[C@H](NCc4cnc5c(n4)NC(=O)CO5)CO3)c2n1 [OSUAB-0284]
Output: 11400

* * *

Test summary: in vivo
Condition details: female, BALB/c, mouse, po, 10 mg/kg
Outcome measure: AUC(0-t) (ng·h/mL)
Your answer is read as ng·h/mL, so omit the unit and give the number.

Task: Determine from records and report AUC(0-t) for COc1ccc2ncc(F)c(C[C@H](O)[C@H]3OC[C@H](NCc4cnc5c(n4)NC(=O)CO5)CO3)c2n1 [OSUAB-0284]
Output: 8470

* * *

Test summary: in vivo
Condition details: female, BALB/c, mouse, iv, 10 mg/kg
Outcome measure: Tmax (min)
Your answer is read as min, so omit the unit and give the number.

Task: Determine from records and report Tmax for COc1ccc2ncc(F)c(C[C@H](O)[C@H]3OC[C@H](NCc4cnc5c(n4)NC(=O)CO5)CO3)c2n1 [OSUAB-0284]
Output: 5

* * *

Test summary: in vivo
Condition details: female, BALB/c, mouse
Outcome measure: Kp

Task: Determine from records and report Kp for COc1ccc2ncc(F)c(C[C@H](O)[C@H]3OC[C@H](NCc4cnc5c(n4)NC(=O)CO5)CO3)c2n1 [OSUAB-0284]
Output: 0.36 to 0.53

* * *

Test summary: in vivo
Condition details: female, BALB/c, mouse, po, 50 mg/kg
Outcome measure: AUC(0-inf) (ng·h/mL)
Your answer is read as ng·h/mL, so omit the unit and give the number.

Task: Determine from records and report AUC(0-inf) for `COc1ccc2ncc(F)c(C[C@H](O)[C@H]3OC[C@H](NCc4cnc5c(n4)NC(=O)CO5)CO3)c2n1`
Output: 70200
